biological target: Mycobacterium thermoresistible (Mtr) LpqY (Mycolicibacterium thermoresistibile); assay type: binding; settings: single dose MST screen against LpqY
Sequence (G7CES0 29-471): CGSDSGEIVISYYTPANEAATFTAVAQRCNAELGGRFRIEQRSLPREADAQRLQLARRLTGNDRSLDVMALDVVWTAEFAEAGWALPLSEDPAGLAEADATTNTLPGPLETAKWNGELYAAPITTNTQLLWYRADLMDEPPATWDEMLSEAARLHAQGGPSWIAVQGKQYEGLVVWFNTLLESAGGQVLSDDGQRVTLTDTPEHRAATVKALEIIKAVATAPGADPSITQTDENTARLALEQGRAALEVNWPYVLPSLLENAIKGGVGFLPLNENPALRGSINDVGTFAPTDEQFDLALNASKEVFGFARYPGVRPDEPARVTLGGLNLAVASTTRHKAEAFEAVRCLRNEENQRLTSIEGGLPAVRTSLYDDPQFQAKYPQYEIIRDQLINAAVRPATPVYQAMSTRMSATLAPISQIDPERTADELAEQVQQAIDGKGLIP
// values below are reported Pathogen Box screen signal/noise ratio

[
  {
    "compound": "Cc1ccc2[nH]c(C3CCCNC3)c(-c3ccncc3)c2c1 (stereo not drawn) [MMV024311]",
    "Pathogen Box screen signal/noise ratio": 0.4
  },
  {
    "compound": "COc1cc(NC(=O)Cc2nn(C)c(=O)c3ccccc23)ccc1Cl [MMV676053]",
    "Pathogen Box screen signal/noise ratio": 1.3
  },
  {
    "compound": "Clc1cccc(C(c2ccc(CN3CCNCC3)cc2)n2ccnc2)c1 (stereo not drawn) [MMV663250]",
    "Pathogen Box screen signal/noise ratio": 0.278
  },
  {
    "compound": "COc1ccc(Cn2cnc3c(-c4ccco4)nc(Cl)nc32)cc1 [MMV687170]",
    "Pathogen Box screen signal/noise ratio": 1.0
  },
  {
    "compound": "Cc1cc(NC(=O)c2ccc(S(=O)(=O)N(Cc3ccccc3)C(C)C)cc2)no1 [MMV007133]",
    "Pathogen Box screen signal/noise ratio": 0.4
  },
  {
    "compound": "CCc1nc2ccc(C(=O)NCc3ccc4c(c3)OCO4)cn2c1N(C)Cc1cccs1 [MMV407539]",
    "Pathogen Box screen signal/noise ratio": 0.241
  },
  {
    "compound": "CCOc1ccc(-c2nc(NC(=O)CS(=O)(=O)c3ccccc3)sc2C)cc1 [MMV007638]",
    "Pathogen Box screen signal/noise ratio": 0.254
  },
  {
    "compound": "O=C(NC1CC1)c1ccc(CSCc2ccccc2Cl)o1 [MMV007803]",
    "Pathogen Box screen signal/noise ratio": 0.148
  },
  {
    "compound": "C[C@H](c1ccc2c(c1)CCCC2)N(C)c1ncc2c(N)nc(N)nc2n1 [MMV690103]",
    "Pathogen Box screen signal/noise ratio": 1.5
  }
]

Source listed as paper PMC9579956.
